# assay_system: PD-1/PD-L1 interaction (Homo sapiens (Human), UniProt Q9NZQ7)
# Sequence (Q9NZQ7 19-290): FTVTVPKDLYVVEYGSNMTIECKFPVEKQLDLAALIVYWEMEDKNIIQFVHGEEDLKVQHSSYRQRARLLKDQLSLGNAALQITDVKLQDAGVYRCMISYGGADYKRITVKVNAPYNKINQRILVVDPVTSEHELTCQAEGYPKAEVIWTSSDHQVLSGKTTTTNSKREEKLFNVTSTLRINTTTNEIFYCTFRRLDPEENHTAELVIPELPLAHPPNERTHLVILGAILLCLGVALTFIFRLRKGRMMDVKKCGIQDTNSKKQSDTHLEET
# method_summary: PD-1/PD-L1 NFAT Reporter Assay (Jurkat T cells / PD-L1 expressing CHO cells co-culture)
# Type: cell-based
# condition_set: Jurkat; maximum NFAT-activation level relative to the positive control (10 nM Atezolizumab)
recorded_metric: Emax (%)
Response body: numeric value in %, unit text excluded.

Item: CCOC(=O)C1CN([C@@H]2CCc3cc(-c4cccc(-c5cccc(-c6cnc(CN7CC8(CCC(=O)N8)C7)c(OC)n6)c5Cl)c4Cl)cc(OC)c32)C1 (single isomer, unassigned) | Emax: 18

Item: COc1cc(-c2cccc(-c3cccc(-c4cnc(CN5CC6(CCC(=O)N6)C5)c(OC)n4)c3Cl)c2Cl)cc2c1[C@H](NCC(=O)O)CC2 (single isomer, unassigned) | Emax: 107

Item: `COc1cc(-c2cccc(-c3cccc(-c4cnc(CN5CC6(CCC(=O)N6)C5)c(OC)n4)c3Cl)c2Cl)cc2c1[C@@H](NCC(=O)O)CC2` | Emax: 89

Item: COc1cc(-c2cccc(-c3cccc(-c4cnc(CN5CC6(CCC(=O)N6)C5)c(OC)n4)c3Cl)c2Cl)cc2c1[C@@H](N1CC(C(=O)O)C1)CC2 (single isomer, unassigned) | Emax: 112

Item: COc1cc(-c2cccc(-c3cccc(-c4cnc(CN5CC6(CCC(=O)N6)C5)c(OC)n4)c3Cl)c2Cl)cc2c1[C@@H](N1CC3(CCC(=O)N3)C1)CC2 (single isomer, unassigned) | Emax: 24

Item: COc1cc(-c2cccc(-c3cccc(-c4cnc(CN5CC6(CCC(=O)N6)C5)c(OC)n4)c3Cl)c2Cl)cc2c1[C@H](N1CC(O)C1)CC2 (single isomer, unassigned) | Emax: 32

Item: COc1cc(-c2cccc(-c3cccc(-c4cnc(CN5CC(O)C5)c(OC)n4)c3Cl)c2Cl)cc2c1[C@@H](N1CC(O)C1)CC2 (single isomer, unassigned) | Emax: 105

* * *

What pEC50 was measured for each of the following?
# assay_system: PD-1/PD-L1 interaction (Homo sapiens (Human))
# method_summary: PD-1/PD-L1 NFAT Reporter Assay (Jurkat T cells / PD-L1 expressing CHO cells co-culture)
# condition_set: co-culture 6 hrs at 37° C., luciferase
pEC50: −log10 of the molar value.

Item: `COc1nc(-c2cccc(-c3cccc(-c4cc5c(c(OC)n4)[C@H](NC[C@@H]4CCC(=O)N4)CC5)c3Cl)c2Cl)cnc1CN1CC(OC)C1` | pEC50: 5.00 to 6.00

Item: `COc1nc(-c2cccc(-c3cccc(-c4cc5c(c(OC)n4)[C@@H](NC[C@@H]4CCC(=O)N4)CC5)c3Cl)c2Cl)cnc1CN1CC(OC)C1` | pEC50: ≥ 8.00

Item: COc1nc(-c2cccc(-c3cccc(-c4cc5c(c(OCC6CC6)n4)C(NC[C@@H]4CCC(=O)N4)CC5)c3Cl)c2Cl)cnc1CN1CC2(CCC(=O)N2)C1 (some centres unmarked) | pEC50: 7.00 to 8.00

Item: `COc1nc(-c2cccc(-c3cccc(-c4cc5c(c(OC)n4)[C@@H](NC[C@@H]4CCC(=O)N4)CC5)c3Cl)c2Cl)cnc1CNC[C@@H]1CCC(=O)N1` | pEC50: ≥ 8.00

Item: COc1nc(-c2cccc(-c3cccc(-c4cc5c(c(OC)n4)[C@@H](N4CC6(CCC(=O)N6)C4)CC5)c3Cl)c2Cl)cnc1CNC[C@@H]1CCC(=O)N1 (single isomer, unassigned) | pEC50: 7.00 to 8.00

Item: COc1nc(-c2cccc(-c3cccc(-c4cc5c(c(OC)n4)[C@H](N4CC(C(=O)O)C4)CC5)c3Cl)c2Cl)cnc1CN1CC(OC)C1 (single isomer, unassigned) | pEC50: 6.00 to 7.00

Item: COc1cc(-c2cccc(-c3cccc(-c4cnc(CN5CC6(CCC(=O)N6)C5)c(OC)n4)c3Cl)c2Cl)cc2c1C[C@H](N1CC3(CCC(=O)N3)C1)C2 (single isomer, unassigned) | pEC50: 5.00 to 6.00

Item: `CCOC(=O)CN1CCc2c(cc(-c3cccc(-c4cccc(-c5cnc(CN6CC(O)C6)c(OC)n5)c4Cl)c3Cl)nc2OC)C1` | pEC50: 6.00 to 7.00

Item: `COc1nc(-c2cccc(-c3cccc(-c4cc5c(c(OC)n4)[C@@H](NC[C@@H]4CCC(=O)N4)CC5)c3Cl)c2Cl)cnc1CN1CC(O)C1` | pEC50: ≥ 8.00

Item: CCOC(=O)C1CN([C@@H]2CCc3cc(-c4cccc(-c5cccc(-c6cnc(CN7CC(OC)C7)c(OC)n6)c5Cl)c4Cl)nc(OC)c32)C1 (single isomer, unassigned) | pEC50: 5.00 to 6.00

Item: COc1nc(-c2cccc(-c3cccc(-c4cc5c(c(OC)n4)[C@@H](N4CC6(CCC(=O)N6)C4)CC5)c3Cl)c2Cl)cnc1CN1CC2(C1)CN(C(C)=O)C2 (single isomer, unassigned) | pEC50: ≥ 8.00

Item: `COc1nc(-c2cccc(-c3cccc(-c4cc5c(c(OC)n4)[C@@H](NC[C@@H]4CCC(=O)N4)CC5)c3Cl)c2Cl)cnc1CN1CC2(C1)CN(C(C)=O)C2` | pEC50: ≥ 8.00

Item: COc1nc(-c2cccc(-c3cccc(-c4cc5c(c(OC)n4)C(N4CCN(C(C)=O)CC4)CC5)c3Cl)c2Cl)cnc1CN1CC2(CCC(=O)N2)C1 (centres unmarked) | pEC50: 7.00 to 8.00

Item: COc1nc(-c2cccc(-c3cccc(-c4cc5c(c(OC)n4)[C@@H](NC[C@@H]4CCC(=O)N4)CO5)c3Cl)c2Cl)cc(C)c1CN1CC2(C1)CN(C(C)=O)C2 (single isomer, unassigned) | pEC50: ≥ 8.00

Item: `COc1nc(-c2cccc(-c3cccc(-c4cc5c(c(OC)n4)CCN(CC(=O)O)C5)c3Cl)c2Cl)cnc1CN1CC(O)(C(F)(F)F)C1` | pEC50: 5.00 to 6.00

Item: COc1cc(-c2cccc(-c3cccc(-c4cnc(CN5CC6(CCC(=O)N6)C5)c(OC)n4)c3Cl)c2Cl)cc2c1[C@H](NCC(=O)O)CC2 (single isomer, unassigned) | pEC50: 6.00 to 7.00

Item: COc1nc(-c2cccc(-c3cccc(-c4cc5c(c(OC)n4)[C@H](N4CC6(CCC(=O)N6)C4)CC5)c3Cl)c2Cl)cnc1CN1CC2(CCC(=O)N2)C1 (single isomer, unassigned) | pEC50: < 5.00

Item: `COc1nc(-c2cccc(-c3cccc(-c4cc5c(c(OC)n4)[C@@H](N4CC(C(=O)O)C4)CC5)c3Cl)c2Cl)cnc1CN1CC(O)C1` | pEC50: 7.00 to 8.00

Item: COc1cc(-c2cccc(-c3cccc(-c4cnc(CN5CC(O)C5)c(OC)n4)c3Cl)c2Cl)cc2c1[C@@H](N1CC(O)C1)CC2 (single isomer, unassigned) | pEC50: 6.00 to 7.00

Item: CCOC(=O)C1CN([C@@H]2CCc3cc(-c4cccc(-c5cccc(-c6cnc(CN7C[C@@H](O)[C@@H]7C)c(OC)n6)c5Cl)c4Cl)nc(OC)c32)C1 (single isomer, unassigned) | pEC50: 5.00 to 6.00
